biological target: Human cytomegalovirus DNA polymerase (Human cytomegalovirus)
Sequence (P08546 whole entry): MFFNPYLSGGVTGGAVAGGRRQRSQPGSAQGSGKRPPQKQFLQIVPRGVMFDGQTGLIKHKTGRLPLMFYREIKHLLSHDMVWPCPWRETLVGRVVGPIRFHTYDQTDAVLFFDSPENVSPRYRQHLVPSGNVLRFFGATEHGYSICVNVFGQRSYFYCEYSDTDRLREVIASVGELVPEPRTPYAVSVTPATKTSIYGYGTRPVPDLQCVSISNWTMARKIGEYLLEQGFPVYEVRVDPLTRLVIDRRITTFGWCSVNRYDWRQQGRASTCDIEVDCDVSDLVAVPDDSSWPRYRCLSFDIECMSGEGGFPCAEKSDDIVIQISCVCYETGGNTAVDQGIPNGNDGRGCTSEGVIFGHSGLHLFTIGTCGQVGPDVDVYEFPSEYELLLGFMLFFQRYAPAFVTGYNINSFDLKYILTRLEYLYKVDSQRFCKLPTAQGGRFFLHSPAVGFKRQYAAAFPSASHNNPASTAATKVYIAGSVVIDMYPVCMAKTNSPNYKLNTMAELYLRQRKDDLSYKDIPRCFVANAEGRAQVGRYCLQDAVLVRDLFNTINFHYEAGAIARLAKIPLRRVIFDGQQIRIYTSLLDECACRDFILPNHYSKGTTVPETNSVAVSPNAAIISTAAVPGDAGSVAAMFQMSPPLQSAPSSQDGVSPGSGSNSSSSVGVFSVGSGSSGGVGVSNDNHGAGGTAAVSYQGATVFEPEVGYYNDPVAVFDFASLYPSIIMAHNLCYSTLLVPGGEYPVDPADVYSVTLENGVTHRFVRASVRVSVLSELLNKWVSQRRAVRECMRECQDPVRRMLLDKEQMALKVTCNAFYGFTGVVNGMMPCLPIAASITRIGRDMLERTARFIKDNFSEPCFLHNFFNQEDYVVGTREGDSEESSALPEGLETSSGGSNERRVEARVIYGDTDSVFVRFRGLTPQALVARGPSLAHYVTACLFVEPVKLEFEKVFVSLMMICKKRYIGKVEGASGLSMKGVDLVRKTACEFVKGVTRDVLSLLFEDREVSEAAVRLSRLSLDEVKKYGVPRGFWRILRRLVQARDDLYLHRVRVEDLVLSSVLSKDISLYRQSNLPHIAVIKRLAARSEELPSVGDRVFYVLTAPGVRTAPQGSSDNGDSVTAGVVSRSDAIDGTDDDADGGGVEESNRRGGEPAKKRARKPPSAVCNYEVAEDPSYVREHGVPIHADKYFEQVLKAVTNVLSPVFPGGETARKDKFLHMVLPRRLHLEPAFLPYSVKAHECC
# IC50 binned as class 1: < 30 nM; class 2: ≥ 30 nM and < 100 nM; class 3: ≥ 100 nM

1. O=C(NCc1ccc(Cl)cc1)c1cc(O[C@@H]2CCN3C(=O)OC[C@H]3C2)c(-c2cn[nH]c2)cn1 (racemic) [Compound 25] ... class 1
2. CN(C)CCn1cc(-c2cnc(C(=O)NCc3ccc(Cl)cc3)cc2O[C@H]2CCN3C(=O)OC[C@@H]3C2)cn1 (racemic) [Compound 10] ... class 2
3. CC(C)[C@H](N)C(=O)OCN(Cc1ccc(Cl)cc1)C(=O)c1cc(O[C@H]2CCN3C(=O)OC[C@@H]3C2)c(-c2cnn(C(F)F)c2)cn1 [Compound 185] ... class 1
4. CC(=O)N1CCC(Oc2cc(C(=O)NCc3ccc(Cl)cc3)ncc2-c2cc(C)ns2)CC1 [Compound 44] ... class 1
5. CC(C)CCn1cc(-c2cnc(C(=O)NCc3ccc(Cl)cc3)cc2O[C@H]2CCN3C(=O)OC[C@@H]3C2)cn1 (racemic) [Compound 9] ... class 3
6. O=C(NCc1ccc(Cl)cc1)c1cc(O[C@H]2CCN3C(=O)OCC[C@@H]3C2)c(-c2cnn(C(F)F)c2)cn1 (single isomer, unassigned) [Compound 162-1] ... class 1
7. Cc1cc(-c2cnc(C(=O)NCc3ccc(Cl)cc3)cc2O[C@H]2CCN3C(=O)OC[C@@H]3C2)sn1 [Compound 23] ... class 1
8. CN(CCCO)Cc1cnc(C(=O)NCc2ccc(Cl)cc2)cc1O[C@H]1CCN2C(=O)OC[C@@H]2C1 [Compound 136] ... class 3
9. CC(=O)N1CCC(Oc2cc(C(=O)NCc3ccc(Cl)cc3)ncc2-c2cnc(C3CC3)o2)CC1 [Compound 67] ... class 2
10. Cc1ccn(-c2cnc(C(=O)NCc3ccc(Cl)cc3)cc2O[C@H]2CCN3C(=O)OC[C@@H]3C2)n1 [Compound 106] ... class 3
11. CC(=O)N1CCC(Oc2cc(C(=O)NCc3ccc(Cl)cc3)ncc2-c2cn(C)c(CCO)n2)CC1 [Compound 55] ... class 2
12. CC(=O)N1CCC(Oc2cc(C(=O)NCc3ccc(Cl)cc3)ncc2-c2cnsn2)CC1 [Compound 58] ... class 3
13. Cc1cnc(C(=O)NCc2ccc(Cl)cc2)cc1OC1CCC(=O)N(C)CC1 (centres unmarked) [Compound 99] ... class 3

* * *

target: varicella zoster virus DNA polymerase (Varicella-zoster virus, UniProt P09252)
Sequence (P09252 whole entry): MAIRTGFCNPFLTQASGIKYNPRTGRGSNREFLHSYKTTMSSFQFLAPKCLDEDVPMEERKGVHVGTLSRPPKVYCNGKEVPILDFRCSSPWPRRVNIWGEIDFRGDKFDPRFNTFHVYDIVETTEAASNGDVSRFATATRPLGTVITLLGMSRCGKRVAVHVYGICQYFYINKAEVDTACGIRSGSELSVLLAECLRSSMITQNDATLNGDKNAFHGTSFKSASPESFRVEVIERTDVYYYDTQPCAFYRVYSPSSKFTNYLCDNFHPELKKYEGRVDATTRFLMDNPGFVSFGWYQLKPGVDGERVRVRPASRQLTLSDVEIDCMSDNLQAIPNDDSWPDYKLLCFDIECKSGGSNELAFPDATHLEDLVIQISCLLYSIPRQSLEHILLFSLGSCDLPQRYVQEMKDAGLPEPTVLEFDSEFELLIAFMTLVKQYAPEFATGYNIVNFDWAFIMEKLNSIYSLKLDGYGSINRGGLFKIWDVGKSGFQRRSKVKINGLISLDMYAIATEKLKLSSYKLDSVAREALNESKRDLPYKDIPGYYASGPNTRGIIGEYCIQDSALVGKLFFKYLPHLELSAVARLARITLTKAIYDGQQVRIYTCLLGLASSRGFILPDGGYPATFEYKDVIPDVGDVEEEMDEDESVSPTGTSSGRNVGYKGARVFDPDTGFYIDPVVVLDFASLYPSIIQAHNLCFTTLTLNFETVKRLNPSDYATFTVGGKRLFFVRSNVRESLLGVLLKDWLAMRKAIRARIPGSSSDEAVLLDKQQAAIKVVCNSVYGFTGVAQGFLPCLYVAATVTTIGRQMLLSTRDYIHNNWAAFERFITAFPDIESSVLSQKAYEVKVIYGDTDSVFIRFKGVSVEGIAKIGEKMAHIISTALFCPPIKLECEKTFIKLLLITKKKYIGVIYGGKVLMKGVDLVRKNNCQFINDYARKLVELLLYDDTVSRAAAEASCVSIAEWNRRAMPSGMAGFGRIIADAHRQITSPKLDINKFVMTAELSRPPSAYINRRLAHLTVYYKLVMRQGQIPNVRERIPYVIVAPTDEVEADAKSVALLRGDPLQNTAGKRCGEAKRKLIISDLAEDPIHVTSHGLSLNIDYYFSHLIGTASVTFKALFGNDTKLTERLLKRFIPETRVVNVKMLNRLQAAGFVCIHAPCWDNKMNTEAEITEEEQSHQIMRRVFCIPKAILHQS
Threshold check on IC50: strictly below 6 nM is true (1); on or above 6 nM is false (0).

1) N#Cc1cnc(C(=O)NCc2ccc(Cl)cc2)cc1O[C@H]1CCN2C(=O)OCC[C@@H]2C1 ... true (1)
2) O=C(NCc1ccc(Cl)cc1)c1cc(O[C@H]2CCN3C(=O)OC[C@@H]3C2)cc(CO)n1 ... false (0)
3) Cn1cc(-c2cnc(C(=O)NCc3ccc(Cl)c(F)c3)cc2O[C@H]2CCN3C(=O)OC[C@@H]3C2)cn1 ... true (1)
4) O=C(NCc1ccc(Cl)cc1)c1cc(O[C@H]2CCN3C(=O)OC[C@@H]3C2)c(-c2cnn(C(F)F)c2)cn1 ... false (0)
5) O=C(NCc1ccc(Cl)cc1)c1cc(O[C@H]2CCN3C(=O)OC[C@@H]3C2)c(-c2cnn3c2COCC3)cn1 ... false (0)
6) CC(=O)N1CC[C@@H](Oc2cc(C(=O)NCc3ccc(Cl)cc3)ncc2-c2cnc(C)o2)C[C@H]1C ... false (0)
7) CC(C)(O)C1CCN(c2cnc(C(=O)NCc3ccc(Cl)cc3)cc2O[C@H]2CCN3C(=O)OC[C@@H]3C2)C1 (single isomer, unassigned) [Compound 117-2] ... true (1)

* * *

system: VZV in MeWo or MRC5 cells; experiment: Viral qPCR assay VZV (V0/V1, V2/V3), EC50; format: cell-based; conditions: Human alphaherpesvirus 3, MeWo, MEWO cells, 10%; read-out: VZV Cell (EC50) MEWO 10%
# EC50 per record follows
experimental.readout: EC50 (nM)

1) O=C(NCc1ccc(Cl)cc1)c1cc(O[C@H]2CCN3C(=O)OC[C@@H]3C2)c(-c2cc[nH]n2)cn1 [Compound 18] ... 392
2) O=C(NCc1ccc(Cl)cc1)c1cc(O[C@H]2CCN3C(=O)OC[C@@H]3C2)c(-c2cnn(CC(F)(F)F)c2)cn1 [Compound 17] ... 368
3) CN(CCCO)Cc1cnc(C(=O)NCc2ccc(Cl)cc2)cc1O[C@H]1CCN2C(=O)OC[C@@H]2C1 [Compound 136] ... 386
4) CC(=O)N1CCC(Oc2cc(C(=O)NCc3ccc(Cl)cc3)[n+]([O-])cc2-c2cnn(C(F)F)c2)CC1 [Compound 132] ... 510
5) CC(C)n1cc(-c2c[n+]([O-])c(C(=O)NCc3ccc(Cl)cc3)cc2O[C@H]2CCN3C(=O)OC[C@@H]3C2)cn1 [Compound 131] ... 158
6) O=C(NCc1ccc(Cl)cc1)c1cc(O[C@H]2CCN3C(=O)OC[C@@H]3C2)c(CCO)cn1 [Compound 112] ... 482
7) Cn1cc(-c2cnc(C(=O)NCc3ccc(Cl)cc3)cc2O[C@H]2CCN3C(=O)NC[C@H]3C2)cn1 (racemic) [Compound 171] ... 883
8) O=C(NCc1ccc(Cl)cc1)c1cc(O[C@H]2CCN3C(=O)OC[C@@H]3C2)c(OCC(F)(F)F)cn1 [Compound 126] ... 488
9) Cn1cc(-c2cnc(C(=O)NCc3ccc(Cl)cc3)cc2O[C@H]2CCN3C(=O)OC[C@@H]3C2)cn1 [Compound 29] ... 51.6
10) CC(=O)N1CCC(Oc2cc(C(=O)NCc3ccc(Cl)cc3)ncc2/C=C\c2ccccn2)CC1 [Compound 77] ... 230
11) COCCn1cc(-c2cnc(C(=O)NCc3ccc(Cl)cc3)cc2O[C@H]2CCN3C(=O)OC[C@@H]3C2)cn1 [Compound 31] ... 111
12) N#Cc1cnc(C(=O)NCc2ccc(Cl)cc2)cc1O[C@H]1CCN2C(=O)OC[C@@H]2C1 [Compound 127] ... 239
13) O=C(NCc1ccc(Cl)cc1)c1cc(O[C@H]2CCN3C(=O)OC[C@@H]3C2)c(-c2nccs2)cn1 [Compound 40] ... 16.7
14) O=C(NCc1ccc(Cl)cc1F)c1cc(O[C@H]2CCN3C(=O)OC[C@@H]3C2)c(-c2cnn(C(F)F)c2)cn1 [Compound 8] ... 368
15) Cn1cc(-c2cnc(C(=O)NCc3ccc(Cl)cc3)cc2O[C@H]2CCN3C(=O)CC[C@H]3C2)cn1 (racemic) [Compound 170] ... 599
16) COCCn1ccc(-c2cnc(C(=O)NCc3ccc(Cl)cc3)cc2O[C@H]2CCN3C(=O)OC[C@@H]3C2)n1 [Compound 28] ... 422
17) Cn1ccc(-c2cnc(C(=O)NCc3ccc(Cl)cc3)cc2O[C@H]2CCN3C(=O)OC[C@@H]3C2)n1 [Compound 30] ... 82
18) O=C(NCc1ccc(Cl)cc1)c1cc(O[C@H]2CCN3C(=O)CCC[C@@H]3C2)c(-c2cnn(C(F)F)c2)cn1 (single isomer, unassigned) [Compound 161-1] ... 210
19) O=C(NCc1ccc(Cl)cc1)c1cc(O[C@H]2CCN3C(=O)OC[C@@H]3C2)c(CCn2cccn2)cn1 [Compound 115] ... 900
20) O=C(NCc1ccc(Cl)cc1)c1cc(O[C@H]2CCN3C(=O)OC[C@@H]3C2)c(-c2cnn(CC(F)F)c2)cn1 [Compound 27] ... 248
21) O=C(NCc1ccc(Cl)cc1)c1cc(O[C@H]2CCN3C(=O)OC[C@@H]3C2)c(-c2cnn(CCO)c2)cn1 [Compound 34] ... 190
22) O=C(NCc1ccc(Cl)cc1)c1cc(O[C@H]2CCN3C(=O)OC[C@@H]3C2)c(-c2cscn2)cn1 [Compound 37] ... 20.8
23) O=C(NCc1ccc(Cl)cc1)c1cc(O[C@H]2CCN3C(=O)NC[C@@H]3C2)c(-c2cnn(C(F)F)c2)cn1 (racemic) [Compound 163] ... 588
24) Cn1cc(-c2cnc(C(=O)NCc3ccc(Cl)c(F)c3)cc2O[C@H]2CCN3C(=O)OC[C@@H]3C2)cn1 [Compound 96] ... 53.6
25) Cc1ccn(-c2cnc(C(=O)NCc3ccc(Cl)cc3)cc2O[C@H]2CCN3C(=O)OC[C@@H]3C2)n1 [Compound 106] ... 288
26) CN(C)CCn1cc(-c2cnc(C(=O)NCc3ccc(Cl)cc3)cc2O[C@H]2CCN3C(=O)OC[C@@H]3C2)cn1 (racemic) [Compound 10] ... 375
27) CC(=O)N1CCC(Oc2cc(C(=O)NCc3ccc(Cl)cc3)ncc2-c2cnn(C)c2)CC1 [Compound 6] ... 84.5
28) CCn1cc(-c2cnc(C(=O)NCc3ccc(Cl)cc3)cc2O[C@H]2CCN3C(=O)OC[C@@H]3C2)cn1 (racemic) [Compound 16] ... 165

Sourced from patent US20240067657A1
